Values from PubChem BioAssay

- assay-procedure: change in splice reporter luminescence, either direction, cell-based, HEK293, spliceosome inhibition project, primary screen (AID 1101);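 note: HEK293 cells carrying a splicing-competent luciferase reporter gene; test concentration not given here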
- experimental-context: HEK293 splicing luciferase reporter, 24 h, higher = more signal, called active from +8 up or from −8 down
measured-attribute: z-score
Note: the reply should be a number with no unit written.

Give its z-score value. Item: `COC(=O)[C@@]1(Cc2ccc(OC)cc2)[C@H]2c3cc(C(=O)N4CCCC4)n(CCc4ccc(O)c(O)c4)c3C[C@H]2CN1C(=O)c1ccccc1`
-0.73

Consider the molecule shown here: `C=CCN1C(=O)[C@]2(O[C@H](CCO)[C@@H]([Si](C)(C)c3ccc(OC)cc3)[C@@H]2C)c2cc(N(C=O)c3ccccc3)ccc21` What is its recorded z-score?
-2.19

Any idea what z-score was measured for O=C1OCCC=C[C@H]2OC34C=CCN(CCN5CCOCC5)C(=O)[C@H]3N(CCCCCO)C(=O)[C@@H]4C12 (stereo partly drawn) ?
-0.78

Consider the molecule `COCCOC(=O)N1C(=O)[C@@]2(c3cc(C#CC4(O)CCCCCC4)ccc31)[C@H](C(=O)Nc1nc3ccccc3s1)[C@H]1C(=O)O[C@H](c3ccccc3)[C@H](c3ccccc3)N1[C@@H]2c1ccc(OCCO)cc1` and give its measured z-score.
-0.426

Looking for the measured z-score of `COCCOC(=O)N1C(=O)[C@@]2(c3ccccc31)[C@H](C(N)=O)[C@H]1C(=O)O[C@H](c3ccccc3)[C@H](c3ccccc3)N1[C@@H]2c1ccc(O)cc1` , can you help?
-0.726

Find the recorded z-score belonging to `COC(=O)[C@@]1(Cc2ccc(F)cc2)[C@H]2c3cc(C(=O)N(C)C)n(Cc4ccc(C)o4)c3C[C@H]2CN1C(=O)c1ccccc1` and report it.
-1.6

Param item = `O=C1O[C@@H](c2ccccc2)[C@@H](c2ccccc2)N2[C@@H](c3ccc(OCCO)cc3)[C@]3(C(=O)Nc4ccc(C#CC5=CCCCC5)cc43)[C@@H](C(=O)N3CCCCCCC3)[C@H]12` ; retrieve measured z-score.
-0.447

So what's the measured z-score for this one? `C=C(CCCC)/C(=C/C[C@H](OC(=O)c1ccncc1)c1ccc(OCCO)cc1)c1cc(C(=O)OC)ccc1OC`
-1.14

Which z-score reading was recorded for the molecule `COCCCNC(=O)[C@@]1(Cc2ccccc2)N=C(c2ccc(OCCCO)cc2)O[C@H]1c1ccccc1CN=[N+]=[N-]` ?
-0.469

Look at this molecule and give its reported z-score. `NC(=O)[C@@H]1[C@H]2C(=O)O[C@H](c3ccccc3)[C@H](c3ccccc3)N2[C@H](c2ccc(OCCO)cc2)[C@@]12C(=O)Nc1ccc(C#CC3=CCCCC3)cc12`
-0.857

Fill blank: measured z-score of the molecule Cc1ccc(C2C3C(=O)CC4C(=O)N(c5ccccc5)C(=O)C4C3CN2S(=O)(=O)c2ccc(C)cc2)cc1 (stereo not drawn) is ____.
0.495

Name the recorded z-score for `COC(=O)[C@@]1(CCC(=O)OC(C)(C)C)N=C(c2ccc(OCCCO)cc2)O[C@H]1c1ccccc1` .
0.509

Consider the molecule `COc1ccc(C#Cc2ccc3c(c2)[C@]2(C(=O)N3)[C@H](c3ccc(O)cc3)N3[C@H](c4ccccc4)[C@H](c4ccccc4)OC(=O)[C@H]3[C@@H]2C(=O)N2CCc3cc(OC)c(OC)cc3C2)cc1` and give its measured z-score.
1.34
